Test system: NCCIT cells
Assay: NCCIT cell confluence
Type: cell-based, human
Conditions: Homo sapiens, NCCIT, 40 h, read-out: IC50, NCCIT cells
REPORTED_METRIC: IC50
Returns: string containing the number followed by the unit.

The molecule Cc1ncc(-c2ccnc(Nc3ccc(S(C)(=O)=O)cc3)n2)n1C(C)C [AZD5438] showed IC50 equal to 1380 nM

* * *

Test: plasma pharmacokinetics of single oral AZD5438 dosing in mice
Type: in vivo
Conditions: CBA, mouse, 37.5 mg/kg
REPORTED_METRIC: Cmax (ng/mL)
Give the value, in units of ng/mL, as a plain number.

The molecule `Cc1ncc(-c2ccnc(Nc3ccc(S(C)(=O)=O)cc3)n2)n1C(C)C` showed Cmax equal to 1470
